Parameter: EC50. Scope: all listed entries.
Biological target: glutathione-S-transferase (GST) tagged LXRbeta LBD (ligand binding domain) (Homo sapiens)
Construct: purchased Invitrogen pv4658.pps
Sequence (P55055 222-460 limits assumed): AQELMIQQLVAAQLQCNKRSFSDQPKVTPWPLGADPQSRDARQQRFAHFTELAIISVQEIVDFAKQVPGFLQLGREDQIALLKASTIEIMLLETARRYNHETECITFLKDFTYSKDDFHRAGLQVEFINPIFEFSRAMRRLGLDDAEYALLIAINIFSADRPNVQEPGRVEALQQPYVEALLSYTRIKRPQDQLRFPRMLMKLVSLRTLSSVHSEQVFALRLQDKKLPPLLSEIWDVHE
Experiment: LanthaScreen TR-FRET Liver X Receptor Coactivator Assay, LXR beta
Type: biochemical
Conditions: potency (Inflection Point) of compound-induced co-activator recruitment, TR-FRET; read-out: LXR beta IP
Description: While running the LanthaScreen™ TR-FRET Liver X Receptor Coactivator Assay, LXR alpha-LBD or LXR beta-LBD was added to ligand test compounds followed by addition of a mixture of a fluorescein-labelled coactivator peptide and terbium-conjugated anti-GST antibody. After an incubation period at room temperature, TR-FRET (time-resolved fluorescence resonance energy transfer) was measured using a filter-based instrument capable of TR-FRET, e.g. PerkinElmer Envision.

- compound: "CN(C)C(=O)c1ccc(NCCC[C@H]2CC23CCN(C(=O)[C@](O)(c2ccccc2)C(F)(F)F)CC3)nc1Cl (single isomer, unassigned)"
  measurement.target: "glutathione-S-transferase (GST) tagged LXRbeta LBD (ligand binding domain) (Homo sapiens)"
  EC50 (nM): 14
- compound: "CNC(=O)c1ccc(NCCCCC2CCN(C(=O)C(O)(c3cc(Cl)cc(Cl)c3)C(F)(F)F)CC2)cc1Cl (single isomer, unassigned)"
  measurement.target: "glutathione-S-transferase (GST) tagged LXRbeta LBD (ligand binding domain) (Homo sapiens)"
  EC50 (nM): 3
- compound: "CNC(=O)c1ccc(NCCC[C@@H]2CC23CCN(C(=O)[C@](O)(C(C)C)C(F)(F)F)CC3)cc1Cl (single isomer, unassigned)"
  measurement.target: "glutathione-S-transferase (GST) tagged LXRbeta LBD (ligand binding domain) (Homo sapiens)"
  EC50 (nM): 21

* * *

biological target: glutathione-S-transferase (GST) tagged LXRalpha LBD (ligand binding domain) (Homo sapiens); construct: purchased Invitrogen pv4655; test: LanthaScreen TR-FRET Liver X Receptor Coactivator Assay, LXR alpha; format: biochemical; settings: potency (Inflection Point) of compound-induced co-activator recruitment, TR-FRET; read-out: LXR alpha IP
Sequence (Q13133 209-447 limits assumed): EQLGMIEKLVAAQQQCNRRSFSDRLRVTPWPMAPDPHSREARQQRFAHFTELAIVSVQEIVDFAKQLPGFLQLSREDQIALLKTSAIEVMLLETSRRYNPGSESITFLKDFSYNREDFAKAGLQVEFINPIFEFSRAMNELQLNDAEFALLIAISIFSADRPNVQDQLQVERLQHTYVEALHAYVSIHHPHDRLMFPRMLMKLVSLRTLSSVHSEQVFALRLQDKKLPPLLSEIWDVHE
Grouping rule (EC50): 1: < 500 nM; 2: ≥ 500 nM and < 800 nM; 3: ≥ 800 nM

- compound: "CNC(=O)c1ccc(NCCCCC2CCN(C(=O)C(O)(c3ccccc3)C(F)(F)F)CC2)cc1Cl (single isomer, unassigned)"
  class.name: 1
- compound: "CN(C)C(=O)c1ccc(CCCC2CC3(CCN(C(=O)C(C)(C)c4ccccc4)CC3)C2)cc1Cl"
  class.name: 1
- compound: "COc1cccc([C@@](O)(C(=O)N2CCC([C@H]3C[C@H]3CSc3ccc(C(=O)N(C)C)c(Cl)c3)CC2)C(F)(F)F)c1 (single isomer, unassigned)"
  class.name: 3
- compound: "COc1cccc(C(O)(C(=O)N2CCC(CCCCCc3ccc(C(=O)N(C)C)c(Cl)c3)CC2)C(F)(F)F)c1 (single isomer, unassigned)"
  class.name: 2
- compound: "CN(C)C(=O)c1ccc(CCC[C@H]2CC23CCN(C(=O)[C@](O)(c2ccccc2)C(F)(F)F)CC3)cc1Cl (single isomer, unassigned)"
  class.name: 1
- compound: "CN(C)C(=O)c1ccc(NC[C@H]2C[C@@H]2C2CCN(C(=O)[C@](O)(c3ccccc3)C(F)(F)F)CC2)cc1Cl (single isomer, unassigned)"
  class.name: 2
- compound: "CNC(=O)c1ccc(NCCCCC2CCN(C(=O)C(O)(c3cccc(OC)c3)C(F)(F)F)CC2)cc1F (single isomer, unassigned)"
  class.name: 3
- compound: "CN(C)C(=O)c1ccc(NC[C@H]2C[C@H]2C2CCN(C(=O)[C@](O)(c3ccccc3)C(F)(F)F)CC2)cc1Cl (single isomer, unassigned)"
  class.name: 1
- compound: "CN(C)C(=O)c1ccc(CCCCC2CCN(C(=O)C(O)(c3ccccc3)C(F)(F)F)CC2)cc1Cl (single isomer, unassigned) [Example 15-2]"
  class.name: 2
- compound: "CN(C)C(=O)c1ccc(NCCC[C@H]2CC23CCN(C(=O)[C@](O)(c2ccccc2)C(F)(F)F)CC3)cc1Cl (single isomer, unassigned)"
  class.name: 1
- compound: "CN(C)C(=O)c1ccc(CCCC2CC3(CCN(C(=O)C(O)(c4ccccc4)C(F)(F)F)CC3)C2)cc1Cl (single isomer, unassigned)"
  class.name: 2
- compound: "CN(C)C(=O)c1ccc(NCCCC2CCN(S(=O)(=O)c3c(Cl)cccc3Cl)CC2)cc1Cl"
  class.name: 3
- compound: "CNC(=O)c1ccc(CCCCCC2CCN(C(=O)C(O)(c3ccccc3)C(F)(F)F)CC2)cc1Cl (single isomer, unassigned)"
  class.name: 1
- compound: "COc1cccc(C(O)(C(=O)N2CCC3(CCC(Sc4ccc(C(=O)N(C)C)c(Cl)c4)CC3)CC2)C(F)(F)F)c1 (single isomer, unassigned)"
  class.name: 3
- compound: "CC(CCCC1CCN(C(=O)[C@](O)(c2cccc(Cl)c2)C(F)(F)F)CC1)Nc1ccc(C(=O)N(C)C)c(Cl)c1 (single isomer, unassigned)"
  class.name: 1
- compound: "CNC(=O)c1ccc(NCCC[C@@H]2CC23CCN(C(=O)[C@@](O)(C(C)C)C(F)(F)F)CC3)cc1Cl (single isomer, unassigned)"
  class.name: 3
- compound: "CN(C)C(=O)c1ccc(CCCCC2CCN(C(=O)C(O)(c3ccccc3)C(F)(F)F)CC2)cc1Cl (single isomer, unassigned) [Example 15-3]"
  class.name: 3
- compound: "CC(CCCC1CCN(C(=O)[C@](O)(c2ccccc2)C(F)(F)F)CC1)Nc1ccc(C(=O)N(C)C)c(Cl)c1 (single isomer, unassigned)"
  class.name: 2
